Cited source: patent US20040248887A1

Biological target: Cathepsin S (Homo sapiens, UniProt P25774)
Sequence (P25774 115-331, species assumed): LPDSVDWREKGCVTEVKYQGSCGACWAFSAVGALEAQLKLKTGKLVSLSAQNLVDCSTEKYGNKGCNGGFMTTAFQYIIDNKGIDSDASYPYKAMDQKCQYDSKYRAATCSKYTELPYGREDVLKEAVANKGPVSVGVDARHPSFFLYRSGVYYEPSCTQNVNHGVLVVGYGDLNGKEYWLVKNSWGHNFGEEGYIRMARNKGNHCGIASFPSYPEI
Assay: Cathepsin S inhibition, fluorogenic peptide substrate kinetic assay
Type: biochemical
Settings: Table II; Cathepsin S inhibition constant, pH5.5; read-out: Ki Cat. S
property_measured: Ki

Record O=C(N[C@@H](CC1CCCCC1)C(=O)NCCN1CCc2cc(F)ccc21)c1ccc(-c2ccccc2)s1 [Compound 82] , field Ki: < 100 nM

Record O=C(N[C@@H](CC1CCCCC1)C(=O)NCCN1CCc2cc(F)ccc21)C1CCN(S(=O)(=O)c2ccc(F)cc2)CC1 [Compound 66] , field Ki: < 1000 nM

Record O=C(NC(C(=O)N[C@@H](CO)CN1CCc2cc(F)ccc21)c1ccc(Cl)cc1Cl)c1ccc(F)c(F)c1 (mixture of isomers) [Compound 208] , field Ki: < 100 nM

Record O=C(NC(C(=O)N[C@@H](COCc1ccccc1)CN1CCc2cc(F)ccc21)c1ccc(Cl)cc1Cl)c1ccco1 (mixture of isomers) [Compound 207] , field Ki: < 100 nM

Record C[C@@H](CNc1ccc(OC(F)(F)F)cc1)NC(=O)[C@H](CC1CCCCC1)NS(=O)(=O)c1cccnc1 [Compound 183] , field Ki: < 100 nM

Record O=C(N[C@@H](Cc1ccc(Cl)cc1)C(=O)NCCN1CCc2cc(F)ccc21)c1ccc(-c2cccc(C(F)(F)F)c2)o1 [Compound 198] , field Ki: < 1000 nM
